procedure_details: Elimination half life in human plasma
Format: ADME, organism-based
endpoint_label: half-life (h)
Please give a number only; it is taken to be in h.

Query: Please look up its half-life: O=c1c(-c2ccc(O)cc2)coc2cc(O)cc(O)c12 [GENISTEIN]
Response: 15

// data source = ChEMBL document CHEMBL1144689
